Target: GSK3b (GST-full length GSK3b) (Homo sapiens (Human), UniProt P49841)
Sequence (P49841 whole entry): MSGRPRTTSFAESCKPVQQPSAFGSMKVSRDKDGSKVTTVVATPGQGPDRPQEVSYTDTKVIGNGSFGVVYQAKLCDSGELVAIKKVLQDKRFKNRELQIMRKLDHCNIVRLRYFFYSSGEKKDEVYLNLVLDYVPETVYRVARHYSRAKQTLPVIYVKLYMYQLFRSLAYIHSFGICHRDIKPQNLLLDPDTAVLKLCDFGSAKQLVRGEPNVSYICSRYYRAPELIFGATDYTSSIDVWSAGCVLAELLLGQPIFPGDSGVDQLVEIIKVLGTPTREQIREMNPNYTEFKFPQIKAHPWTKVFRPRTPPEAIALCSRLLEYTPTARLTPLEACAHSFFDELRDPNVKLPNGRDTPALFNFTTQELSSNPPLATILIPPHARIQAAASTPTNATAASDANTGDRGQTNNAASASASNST
Experiment: GSK3b TR-FRET kinase assay
Format: biochemical
Details: 1 nM GSK3b, 2 μM ATP, 30 minute preincubation; read-out: GSK3-B TR-FRET BIOCHEMICAL (TR-FRET); IC50
OBSERVATION_TYPE: IC50

See these solved cases before continuing.
>  <COMPOUND>
CC1(C)CC(=O)C2=C(C1)Nc1n[nH]cc1C21CCN(S(=O)(=O)Cc2ccccc2)CC1

>  <OBSERVED_RESULT>
≤ 100 nM

$$$$
>  <COMPOUND>
CC1(C)CC(=O)C2=C(C1)Nc1n[nH]cc1C21COC2(CN(C(=O)c3cccc(F)c3)C2)C1 (stereo not shown)

>  <OBSERVED_RESULT>
≤ 100 nM

$$$$
>  <COMPOUND>
CCC1(c2cccc(S(=O)(=O)C3CC3)c2)C2=C(CC(C)(C)NC2=O)Nc2n[nH]cc21 (stereo not shown)

>  <OBSERVED_RESULT>
> 5000 nM

$$$$
>  <COMPOUND>
CCC1(c2cccc(-c3cnn(C)c3)c2)C2=C(CC(C)(C)NC2=O)Nc2n[nH]c(C)c21 (stereo not shown) [Compound 945614]

>  <OBSERVED_RESULT>
100 to 1000 nM

$$$$
>  <COMPOUND>
CC1(C)CC(=O)C2=C(C1)Nc1n[nH]cc1C21COC2(CN(C(=O)C3CC(C)(C)C3)C2)C1 (stereo not shown)

>  <OBSERVED_RESULT>
100 to 1000 nM

$$$$
>  <COMPOUND>
CC[C@@]1(c2cccc(C(F)(F)F)c2)C2=C(Nc3n[nH]cc31)[C@@H](C)N(Cc1ccccc1)C2=O

>  <OBSERVED_RESULT>
100 to 1000 nM

$$$$

Next, consider the following compound.
Query :: Kindly indicate its recorded IC50. Item: `CC1(C)CC2=C(C(=O)N1)C1(CCN(S(=O)(=O)c3cnn(C(C)(C)C)c3)CC1)c1c[nH]nc1N2`
Result :: 100 to 1000 nM

====

Target: GSK3α (GST-full length GSK3α) (Homo sapiens (Human), UniProt P49840)
Sequence (P49840 whole entry): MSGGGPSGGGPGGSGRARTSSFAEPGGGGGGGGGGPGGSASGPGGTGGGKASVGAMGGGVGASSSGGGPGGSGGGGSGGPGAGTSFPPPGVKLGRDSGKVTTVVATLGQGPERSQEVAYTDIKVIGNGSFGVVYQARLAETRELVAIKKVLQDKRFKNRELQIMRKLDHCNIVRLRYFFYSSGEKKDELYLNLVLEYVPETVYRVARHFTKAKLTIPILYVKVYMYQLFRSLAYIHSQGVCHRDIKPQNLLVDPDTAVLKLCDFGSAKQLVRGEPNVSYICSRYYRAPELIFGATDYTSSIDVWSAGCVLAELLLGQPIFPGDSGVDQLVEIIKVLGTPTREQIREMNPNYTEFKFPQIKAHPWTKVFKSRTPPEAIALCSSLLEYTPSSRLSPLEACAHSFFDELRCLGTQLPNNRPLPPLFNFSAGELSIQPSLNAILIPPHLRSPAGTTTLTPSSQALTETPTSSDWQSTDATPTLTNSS
Assay: GSK3α TR-FRET kinase assay
Type: biochemical
Conditions: 1 nM GSK3α, 4 μM ATP, 30 minute preincubation; geometric mean; read-out: GSK3-A TR-FRET BIOCHEMICAL (TR-FRET); GMean; IC50
pIC50: −log10 of the molar value.
pIC50 values, listed per item

See these solved cases before continuing.
>  <MOLECULE>
CCC1(c2cccc(N(C)c3cccnc3)c2)C2=C(CC(C)(C)CC2=O)Nc2n[nH]cc21 (stereo not shown) [Compound 874299]

>  <TARGET_DESC>
GSK3α (GST-full length GSK3α) (Homo sapiens (Human), UniProt P49840)

>  <pIC50>
6.00 to 7.00

$$$$
>  <MOLECULE>
CCC1(c2cccc(-c3cn(C)nc3C(C)C)c2)C2=C(CC(C)(C)NC2=O)Nc2n[nH]cc21 (stereo not shown) [Compound 949111]

>  <TARGET_DESC>
GSK3α (GST-full length GSK3α) (Homo sapiens (Human), UniProt P49840)

>  <pIC50>
6.00 to 7.00

$$$$
>  <MOLECULE>
Cc1cccc(C2(C)C3=C(CC(C)(C)CC3=O)Nc3n[nH]cc32)c1 (stereo not shown) [Compound 785736]

>  <TARGET_DESC>
GSK3α (GST-full length GSK3α) (Homo sapiens (Human), UniProt P49840)

>  <pIC50>
≥ 7.00

$$$$

Next, consider the following molecule.
Query :: Write down the reported pIC50 (system: GSK3α (GST-full length GSK3α) (Homo sapiens (Human), UniProt P49840)) of CCC1(c2cccc(-c3cc(C)ncc3F)c2)C2=C(CC(C)(C)NC2=O)Nc2n[nH]cc21 (stereo not shown) [Compound 947804]
Result :: ≥ 7.00

====

Target: GSK3α (GST-full length GSK3α) (Homo sapiens (Human))
Experiment: GSK3α TR-FRET kinase assay
Assay type: biochemical
Settings: 1 nM GSK3α, 4 μM ATP, 30 minute preincubation, Table 16; read-out: GSK3-A TR-FRET BIOCHEMICAL (TR-FRET)
Protocol: TR-FRET Assay: The assay was performed in a white, 384 well, low volume, flat bottom plate (Grenier). After a 30 minute preincubation in assay buffer with the indicated concentration of compound, the kinase activity was initiated by the addition of the substrates. […] After 60 min at room temperature the plate was read on Envision plate reader using Ex: 340 nm, Em: 615 nm and […]. The normalized 665/615 Signal ratio versus log compound concentration was analyzed by XLFIT to yield IC50 values.
IC50 values, listed per item

Query :: Kindly indicate its recorded IC50. Item: CC[C@@]1(c2ccccc2)C2=C(Nc3n[nH]cc31)[C@H](F)C(C)(C)CC2=O [Compound 957197]
Result :: 100 to 1000 nM

Query :: Kindly indicate its recorded IC50. Item: C[C@@H]1CCC[C@]2(C1)C1=C(CC(C)(C)CC1=O)Nc1n[nH]cc12 [Compound 874532]
Result :: ≤ 100 nM

Query :: Kindly indicate its recorded IC50. Item: CC[C@H]1C[C@@]2(CO1)C1=C(CC(C)(C)CC1=O)Nc1n[nH]cc12 [Compound 913214]
Result :: 100 to 1000 nM

Query :: Kindly indicate its recorded IC50. Item: CC1(C)CC(=O)C2=C(Nc3n[nH]cc3C23CCOCC3)[C@@H]1F [Compound 883834]
Result :: 100 to 1000 nM

Query :: Kindly indicate its recorded IC50. Item: CC[C@@]1(c2cccc(C(F)(F)F)c2)C2=C(C[C@]3(CCNC3=O)CC2=O)Nc2n[nH]cc21 [Compound 950332]
Result :: > 5000 nM

Query :: Kindly indicate its recorded IC50. Item: CCCn1nccc1-c1cccc(C2(CC)C3=C(CC(C)(C)CC3=O)Nc3n[nH]cc32)c1 (stereo not drawn) [Compound 946093]
Result :: ≤ 100 nM

====

Biological target: GSK3b (GST-full length GSK3b) (Homo sapiens (Human), UniProt P49841)
Experiment: GSK3b TR-FRET kinase assay
Format: biochemical
Conditions: 1 nM GSK3b, 2 μM ATP, 30 minute preincubation; geometric mean; read-out: GSK3-B TR-FRET BIOCHEMICAL (TR-FRET); GMean; IC50
IC50 values, listed per item

See these solved cases before continuing.
>  <MOLECULE>
CCC1(c2cccc(OC)c2)C2=C(CC(C)(C)CC2=O)Nc2n[nH]cc21 (stereo not drawn) [Compound 801447]

>  <IC50>
1000 to 5000 nM

$$$$
>  <MOLECULE>
CC1(C)CC(=O)C2=C(C1)Nc1n[nH]cc1C21CCc2c(F)cccc21 (stereo not drawn) [Compound 801357]

>  <IC50>
> 1670 nM

$$$$
>  <MOLECULE>
CCC1(c2cccc(Br)c2)C2=C(CC(C)(C)C(F)C2=O)Nc2n[nH]cc21 (stereo not drawn) [Compound 835314]

>  <IC50>
100 to 1000 nM

$$$$
>  <MOLECULE>
CC1(C)CC(=O)C2=C(C1)Nc1n[nH]c(Br)c1C21CCc2c(F)cccc21 (stereo not drawn) [Compound 801358]

>  <IC50>
≤ 100 nM

$$$$

Next, consider the following molecule.
Query :: Write down the reported IC50 (system: GSK3b (GST-full length GSK3b) (Homo sapiens (Human), UniProt P49841)) of C[C@]1(c2ccccc2)C2=C(CC3(CCCC3)CC2=O)Nc2n[nH]cc21 [Compound 792339]
Result :: > 5000 nM

====

Target: GSK3α (GST-full length GSK3α) (Homo sapiens (Human), UniProt P49840)
Assay: GSK3α TR-FRET kinase assay
Type: biochemical
Conditions: 1 nM GSK3α, 4 μM ATP, 30 minute preincubation; read-out: GSK3-A TR-FRET BIOCHEMICAL (TR-FRET); IC50
pIC50: −log10 of the molar value.
pIC50 values, listed per item

See these solved cases before continuing.
>  <COMPOUND>
CC1(C)CC(=O)C2=C(C1)Nc1n[nH]cc1[C@@]21CCOC2(CCOCC2)C1 [Compound 924306]

>  <pIC50>
6.00 to 7.00

$$$$
>  <COMPOUND>
CCC1(c2cccc(-c3c(C)nn(C)c3C)c2)C2=C(CC(C)(C)NC2=O)Nc2n[nH]c(C)c21 (stereo not drawn) [Compound 945598]

>  <pIC50>
≥ 7.00

$$$$
>  <COMPOUND>
CCC1(c2cccc(Br)c2)C2=C(CC(C)NC2=O)Nc2n[nH]cc21 (stereo not drawn) [Compound 913225]

>  <pIC50>
6.00 to 7.00

$$$$
>  <COMPOUND>
CC(=O)N1C[C@@]2(C[C@@]3(CO2)C2=C(CC(C)(C)CC2=O)Nc2n[nH]cc23)[C@@H]1C [Compound 948440]

>  <pIC50>
≥ 7.00

$$$$
>  <COMPOUND>
CCC1(c2cccc(-c3cn(C)nc3C)c2)C2=C(CC(C)(C)NC2=O)Nc2n[nH]cc21 (stereo not drawn) [Compound 944030]

>  <pIC50>
≥ 7.00

$$$$

Query :: Kindly indicate its recorded pIC50. Item: CC[C@]1(c2cccc(C(F)(F)F)c2)C2=C(CCN(c3ccccc3)C2=O)Nc2n[nH]cc21 [Compound 929475]
Result :: < 5.30

Query :: Kindly indicate its recorded pIC50. Item: CC[C@@]1(c2cccc(-c3cn(C)nc3C)c2)C2=C(CC(C)(C)NC2=O)Nc2n[nH]cc21 [Compound 945480]
Result :: 5.30 to 6.00

Query :: Kindly indicate its recorded pIC50. Item: CC1(C)CC(=O)C2=C(C1)Nc1n[nH]cc1C21COC2(CN(C(=O)C(C)(C)F)C2)C1 (stereo not drawn) [Compound 947276]
Result :: ≥ 7.00

Query :: Kindly indicate its recorded pIC50. Item: CC[C@]1(c2cccc(C(F)(F)F)c2)C2=C(C[C@H](c3ccccc3)NC2=O)Nc2n[nH]cc21 [Compound 945364]
Result :: < 5.30

Query :: Kindly indicate its recorded pIC50. Item: COc1cccc(S(=O)(=O)N2CCC3(CC2)C2=C(CC(C)(C)CC2=O)Nc2n[nH]cc23)c1 [Compound 943962]
Result :: ≥ 7.00

Query :: Kindly indicate its recorded pIC50. Item: Cc1cc(C)cc(C(=O)N2CC3(C2)CC2(CO3)C3=C(CC(C)(C)CC3=O)Nc3n[nH]cc32)c1 (stereo not drawn) [Compound 948222]
Result :: 6.00 to 7.00

Query :: Kindly indicate its recorded pIC50. Item: CCC1(c2cccc(C(F)(F)F)c2)C2=C(CN(c3ccccc3)C2=O)Nc2n[nH]cc21 (stereo not drawn) [Compound 945377]
Result :: 6.00 to 7.00
